assay: NOVARTIS: Cytotoxicity against human hepatocellular carcinoma cell line (Huh7); type: toxicity, cell-based, Huh-7; conditions: Huh7 cells (hepatocellular carcinoma cell line)
Measurement Label: CC50 (µM)
Express it in µM; write the number only.

Return value of CC50 for input `COc1ccc(Nc2nc(NCc3ccco3)c3ccccc3n2)cc1` , no commentary.
2.97

Return value of CC50 for input `CCCCN(CC)CCNC(=O)c1cc2c(-c3ccc(Cl)cc3)nn(C)c2s1` , no commentary.
39.8

Return value of CC50 for input `C[n+]1c2n(c3ccccc31)N=C(c1ccccc1)C[Se]2` , no commentary.
23.6

* * *

test system: Plasmodium falciparum; assay: NOVARTIS: Inhibition of Plasmodium falciparum 3D7 (drug-susceptible) proliferation in erythrocyte-based infection assay; type: functional, organism-based; settings: Plasmodium falciparum, 3D7
Exam item: assign y to entries whose EC50 is below 300 nM and n to entries at or above 300 nM. Note that a value of exactly 300 nM receives n.

Please indicate whether the reported EC50 of `COc1ccc(C2=C(Nc3ccc4oc5ccccc5c4c3)c3ccccc3C2=O)cc1` is strictly below 300 nM.
y

Please indicate whether the reported EC50 of `CCN1/C(=C/c2sc3cc(OC)c(OC)cc3[n+]2CC)C=Cc2ccccc21` is strictly below 300 nM.
y

Please indicate whether the reported EC50 of CC1=C(C(=O)OC2CCCCC2)C(c2ccc(F)c(F)c2)C2=C(CCCC2=O)N1 (stereo unspecified) is strictly below 300 nM.
n

Please indicate whether the reported EC50 of `OCCNc1nc(Nc2ccc(Cl)cc2)nc2ccccc12` is strictly below 300 nM.
n

Please indicate whether the reported EC50 of COc1ccc(NC(=O)CCCCCn2c(SCC(=O)NCC3CCCO3)nc3ccsc3c2=O)cc1 (stereo unspecified) is strictly below 300 nM.
n

Please indicate whether the reported EC50 of `O=C(Nc1cccc(C(F)(F)F)c1)c1ccc(-c2cccs2)cc1` is strictly below 300 nM.
n

Please indicate whether the reported EC50 of O=C(NCc1ccc(Cl)cc1)C1CNCC1c1ccc(C(F)(F)F)cc1 (stereo unspecified) is strictly below 300 nM.
n

Please indicate whether the reported EC50 of `COc1ccc(/C=C\c2nc(=O)c3ccccc3o2)cc1` is strictly below 300 nM.
n

Please indicate whether the reported EC50 of `CC1=C(C(=O)OCCC(C)C)C(c2ccccc2)C(C(=O)OCCC(C)C)=C(C)N1` is strictly below 300 nM.
n

Please indicate whether the reported EC50 of Cc1ccc2c(c1)C(C)(c1ccc(Cl)cc1)CC(C)(C)N2C(=O)COc1ccc2ccccc2c1 (stereo unspecified) is strictly below 300 nM.
n

Please indicate whether the reported EC50 of `Cc1ccc(-n2c(C)c(C(=O)c3ccccc3)c3cc(O)ccc32)cc1` is strictly below 300 nM.
n

Please indicate whether the reported EC50 of COc1ccc(C(NC(=O)COc2ccccc2)c2cc(Cl)c3cccnc3c2O)cc1 (stereo unspecified) is strictly below 300 nM.
n

Please indicate whether the reported EC50 of Fc1ccc(Nc2nc(NCC3CCCO3)c3ccccc3n2)cc1 (stereo unspecified) is strictly below 300 nM.
y

Please indicate whether the reported EC50 of `O=C1NC(=S)NC1=Cc1cccc(Oc2ccccc2)c1` is strictly below 300 nM.
n

Please indicate whether the reported EC50 of `CCN(CC)c1nc(S)nc(NC(C)(C)C)n1` is strictly below 300 nM.
n

Please indicate whether the reported EC50 of `CC(=O)Nc1cc(C(=O)Nc2ccc(C3=NCCN3)cc2)ccc1C(=O)Nc1ccc(C2=NCCN2)cc1` is strictly below 300 nM.
n

Please indicate whether the reported EC50 of `Cc1cc(C)cc(C(=O)Nc2c3c(nn2-c2cccc(C)c2C)CS(=O)(=O)C3)c1` is strictly below 300 nM.
n

Please indicate whether the reported EC50 of `O=C(CCl)NCCCCNc1ccnc2cc(Cl)ccc12` is strictly below 300 nM.
n

Please indicate whether the reported EC50 of `c1ccc(-c2cc(N3CCN(c4ccccn4)CC3)nc(-c3ccccn3)n2)nc1` is strictly below 300 nM.
y

Please indicate whether the reported EC50 of `COc1cccc(OC)c1C(=O)Nn1c(-c2cccc(C)c2)nc2ccccc2c1=O` is strictly below 300 nM.
n

Please indicate whether the reported EC50 of `COc1ccc(/C=C/C(=O)Nc2ccc(S(=O)(=O)N3CCOCC3)cc2)cc1` is strictly below 300 nM.
n

* * *

assay: NOVARTIS: Cytotoxicity against human hepatocellular carcinoma cell line (Huh7); format: toxicity, cell-based, Huh-7; conditions: Huh7 cells (hepatocellular carcinoma cell line)
Assign CC50 to each entry below.

Return value of CC50 for input `CN(c1ccc(Br)cc1)S(=O)(=O)c1ccc2[nH]cc(C(=O)N3CCN(c4ccccc4)CC3)c(=O)c2c1` , no commentary.
> 10 µM

Return value of CC50 for input `CCCCCc1nnc(NC(=O)c2ccc(-c3ccc(OC)cc3)cc2)s1` , no commentary.
> 10 µM

Return value of CC50 for input `Cn1nc(C(F)(F)F)c(C(=O)Nc2cccc(C(F)(F)F)c2)c1SCc1ccc(Cl)cc1` , no commentary.
31.3 µM

Return value of CC50 for input `C[n+]1ccccc1C=Cc1ccc(Br)cc1` , no commentary.
95.2 µM

Return value of CC50 for input `CC1(C)CC(NC(=O)Cc2ccc(Cl)cc2)CC(C)(C)N1` , no commentary.
> 100 µM

Return value of CC50 for input `Cc1cc(C)n(-c2ccc(NC(=O)C3CCN(Cc4cc(C)c(C)o4)CC3)cc2)n1` , no commentary.
> 10 µM

Return value of CC50 for input `FC(F)(F)c1cccc(Nc2nc3nonc3nc2Nc2ccc(Br)cc2)c1` , no commentary.
7.13 µM

Return value of CC50 for input `COc1ccc(/C=C/C(=O)Nc2ccncc2)cc1OC` , no commentary.
> 10 µM

Return value of CC50 for input `O=C(NCc1cc2cc3c(cc2nc1Cl)OCO3)c1ccco1` , no commentary.
> 10 µM

Return value of CC50 for input `O=C(C[n+]1ccccc1)NN=Cc1ccc(Cl)c(Cl)c1` , no commentary.
> 100 µM

Return value of CC50 for input `CCC(=O)N1CCOc2c(cc(-c3csc4ccccc34)cc2OCCc2ccccn2)C1` , no commentary.
> 10 µM

Return value of CC50 for input `COc1cccc(C=NNC(=O)c2ccccc2O)c1O` , no commentary.
6.64 µM

Return value of CC50 for input `CN(C)c1ccc(C=NNc2nc(N)nc(N)n2)cc1` , no commentary.
> 10 µM

Return value of CC50 for input `CC(C)(C)CC(C)(C)Nc1c(-c2ccccc2OC(=O)c2ccc(C(F)(F)F)cc2)nc2ccccn12` , no commentary.
> 10 µM

Return value of CC50 for input `O=C(NCCN(CCNc1ccnc2cc(Cl)ccc12)CCNc1ccnc2cc(Cl)ccc12)C1CCC1` , no commentary.
> 10 µM

Return value of CC50 for input CC(NS(=O)(=O)c1ccccc1)C(c1cccs1)N1CCN(c2ccccc2F)CC1 (stereo not given) , no commentary.
> 100 µM

Return value of CC50 for input `Cc1ccn2c(NC(C)(C)CC(C)(C)C)c(-c3ccccc3OC(=O)c3ccccc3C)nc2c1` , no commentary.
> 10 µM

Return value of CC50 for input `OCc1nc2ccccc2n1CCOc1ccccc1` , no commentary.
> 10 µM

Return value of CC50 for input `CC1CCN(CCCNc2ccc(C(=O)Nc3ccc(C(F)(F)F)cc3)cc2[N+](=O)[O-])CC1` , no commentary.
23.4 µM

Return value of CC50 for input `COC(=O)[C@@H]1C[C@@H](NC(=O)c2ccc(C)cc2)CN1Cc1ccc(OC)c(C)c1OC` , no commentary.
> 10 µM

Return value of CC50 for input COc1ccc(NC(=O)C2=C(C)Nc3c(C(=O)Nc4ccc(C)cc4)cnn3C2c2cccc(Cl)c2)cc1 (stereo not given) , no commentary.
> 100 µM

Return value of CC50 for input `O=c1c2cnn(-c3ccccc3)c2nc(-c2ccccc2F)n1-c1ccc(Br)cc1` , no commentary.
> 100 µM

Return value of CC50 for input O=C1Cc2c([nH]c3ccc(OCc4ccccc4)cc23)C2CC=CCC12 (stereo not given) , no commentary.
> 10 µM

Return value of CC50 for input `COc1ccc(CCN2C(=O)c3ccc(Oc4ccc(NC(=O)c5oc(=O)c6ccccc6c5-c5ccccc5)cc4)cc3C2=O)cc1OC` , no commentary.
> 100 µM

Return value of CC50 for input `CCOc1ccc(CCNC(=O)Nc2ccc(F)cc2)cc1OCC` , no commentary.
> 74.7 µM

Return value of CC50 for input `CCSc1nc2sc3c(c2c(=O)n1-c1ccccc1)CCN(Cc1ccccc1)C3` , no commentary.
> 68.4 µM

Return value of CC50 for input `O=[N+]([O-])c1cccc(C=NNc2nc(NN=Cc3cccc([N+](=O)[O-])c3)nc(Nc3cccc4ccccc34)n2)c1` , no commentary.
> 10 µM

Return value of CC50 for input CC(=O)Nc1ccc2c(c1)C(=O)N(C(C(=O)NCc1ccccc1)C1CCCCC1)[C@@H](Cc1ccc(O)cc1)C(=O)N2 (stereo not given in full) , no commentary.
0.659 µM

Return value of CC50 for input `Cc1ccn2c(NC(C)(C)CC(C)(C)C)c(-c3ccccc3OC(=O)C3CCCCC3)nc2c1` , no commentary.
> 10 µM

Return value of CC50 for input `CC(=O)N(C1=C(N2CCCC2)C(=O)c2ccccc2C1=O)c1ccc(F)cc1` , no commentary.
25.8 µM

Return value of CC50 for input `CC[n+]1c(C=Cc2ccc(C)cc2)ccc2ccccc21` , no commentary.
20.9 µM

Return value of CC50 for input `C=C[C@H]1CN2CC[C@H]1C[C@@H]2[C@@H](OC(=O)Cc1ccccc1)c1ccnc2ccccc12` , no commentary.
> 10 µM

Return value of CC50 for input `CN(C)CCNC(=S)Nc1cccc(C(F)(F)F)c1` , no commentary.
> 100 µM

Return value of CC50 for input `CCN1CCN(c2cc(C)c3cc(NC(=O)c4ccc(F)c([N+](=O)[O-])c4)ccc3n2)CC1` , no commentary.
42.9 µM

Return value of CC50 for input CCOC(=O)C1=C(C)N=c2sc(=Cc3c4ccccc4cc4ccccc34)c(=O)n2C1c1cc(OC)ccc1OC (stereo not given) , no commentary.
> 100 µM

Return value of CC50 for input COc1ccc(CCNC(=O)c2cc(S(=O)(=O)N3CC(C)CC(C)C3)ccc2Sc2ccc(F)cc2)cc1OC (stereo not given) , no commentary.
> 10 µM

Return value of CC50 for input CC(Cc1ccccc1)NCCCCCNC(C)Cc1ccccc1 (stereo not given) , no commentary.
5.32 µM

Return value of CC50 for input FC(F)(F)c1cccc(NC(=S)N2CCCC2c2ccccc2Cl)c1 (stereo not given) , no commentary.
> 100 µM

Return value of CC50 for input CCCCCCCCCCCC(OC(=O)C(CCCCN(O)C(C)=O)NC(=O)c1coc(-c2ccccc2O)n1)C(C)C(=O)NC1CCCCN(O)C1=O (stereo not given) [NOCARDIMICIN B] , no commentary.
> 10 µM

Return value of CC50 for input CC(C)CN1C(=O)c2ccccc2C(C(=O)Nc2cccc(Cl)c2)C1c1cccs1 (stereo not given) , no commentary.
93.5 µM
